Each recorded value in this set is attributed to paper PMC3912631.

assay: Human crossover pharmacokinetic interaction study of WM (Tamiflu) alone or with CMF1; type: in vivo, human (Chinese male healthy volunteers); settings: male, in vivo; human, day 5, WM + CMF1, n = 14, arithmetic mean ± SD; read-out: T 1/2 (terminal half-life) (converted)
Property Measured: half-life (h)
Form entry: value (h) — number only.

Input line: Param item = CCC(CC)O[C@@H]1C=C(C(=O)O)C[C@H](N)[C@H]1NC(C)=O [OC, oseltamivir carboxylate] ; retrieve measured half-life.
Output line: 5.7

----------
assay: Rat pharmacokinetics of OA and OC in plasma and urine after oral OA alone or with CMF1; assay type: in vivo, Sprague-Dawley rats; settings: male, Sprague-Dawley, in vivo, po, 30 mg/kg, oral, Group 3: OA 30 mg/kg + CMF1 at 3.90 mg/kg, bid for 5 days, read-out: t 1/2, λz
Property Measured: half-life (h)
Form entry: value (h) — number only.

Input line: Param item = CCC(CC)O[C@@H]1C=C(C(=O)O)C[C@H](N)[C@H]1NC(C)=O [OC, oseltamivir carboxylate] ; retrieve measured half-life.
Output line: 2.61
